Values were extracted from the EternaBench riboswitch data.

# Tested on: MS2 coat protein
# assay.remarks: apparent Kd, MS2 coat protein; higher = weaker binding; RNA-MaP array; FMN 200 µM where present
# run.parameters: designed as: ON switch for flavin mononucleotide; no ligand
Please enter Y where apparent Kd is greater than or equal to 60 nM, and N where it is lower.

-- ask Please tell me: is the sequence CUGGUUGUCGUAGGAUAUGUAGGAUAUUCCUACAUGAGGAUCACCCAUGUUCGCAUGGAAGAAAGACAGAAGGACGAUGACCAU at or over 60 nM in terms of apparent Kd?
-- reply Y

-- ask Similarly, UGGAACUAGGGAGGAUAUGGGAAGAUACAUGAGGAUCACCCAUGUUUAAGAAUGCCGAGAGGCAACUAGAAGGCCCUAGUACCU ?
-- reply Y

-- ask Try this sequence next: GAAUUCGCAUGAGGAUAUGCACUCAUUUCAUGUGCAGAAGGUAUUUCAUUAGACAUGAGGAUCACCCAUGUAUUGGUCACUAAC
-- reply N

-- ask Now consider ACACAUGAGGAUCACCCAUGUAGCUGGCGUCUGCGCCAGCCACAGGAUAUACGGCUACACAAGCCGUAGAAGGGUGAUAAACAC and answer again.
-- reply Y

-- ask // query: AAUUAUAUGUAGAAGGUACUAACAUAUGUGUUGUAAGGAUAUACCAAAUUAUUAGUUAUCAAGUUACAUGAGGAUCACCCAUGU
-- reply N

-- ask Then UAUUUUAACUAAGGAUAUCUGUAUUAUGUUGAAACAUGAGGAUCACCCAUGUUCAUGAUAUUAUAGGAGAAGGUAGAUGAAUAA ?
-- reply N

-- ask Cool, now UAGUGCGUUAGAGGAUAUUCUAAAUAAAAUAAUAAGACAUGAGGAUCACCCAUGUAUGUACAUGGGAAGAAGGCUGAUGUGCUA
-- reply Y

-- ask Follow-up item: ACAUGAGGAUCUCCCAUGUAAAAUUAGGAUAUAUAACUGCACAUGAGGAUCACCCAUGUUUUACCGUAGAAGGGAUAAAUAAUU
-- reply Y

-- ask Subsequent entry: GCAAUAGCAUGAGGAUAUGCUGGAGUUUAGACAGUAGAAGGCAUGUCAUAAGACAUGAGGAUCACCCAUGUAGUUACAAUGGCA
-- reply N

-- ask Try this sequence next: GUAACAUGAGGAUCACCCAUGUCGUGCUAGAUGAGUUCUGGUGAGGAUAUACAUGGUAAAUAACUGUAGAAGGCGCUGGGUACA
-- reply Y

-- ask Now try CGCUGUCAUGCAGGAUAUGCAUUGGAUUGCAAUGCAGAAGGGCGAUUACAUGAGGAUCACCCAUGUGUAGACAGUGAAGAAGAG .
-- reply Y

-- ask What about GGGUACAUCGGAGGAUAUCAUGUAAAUACAUGAGGAUCACCCAUGUCGAUGGACACAUCGGAGAUUGAGAAGGCCGAUGUACCG ?
-- reply N

-- ask Next record, please: GGUAGCAACACAGGAUAUGCUAUCCUUUGGGUAGCAGAAGGGUGAAACAUGAGGAUCACCCAUGUGCUGCCAGGGCGUGAGCCC
-- reply Y

-- ask Thanks! And UGGUACUAGGGAGGAUAUGGGAAGAUACAUGAGGAUCACCCAUGUUUAAGAGUGCCGAGAGGCAACUAGAAGGCCCUAGUACCU ?
-- reply Y
